The measured values listed here are drawn from patent US9637472B2.

target: EZH2 (Homo sapiens (Human)); test: PRC2 enzyme assay on peptide substrates; type: biochemical; conditions: PRC2 enzyme assays on peptide substrates; 4 nM enzyme, 30 min preincubation at 25° C.; read-out: EZH2 IC50
Sequence (Q15910 other isoform, or with tags, fused parts or gaps): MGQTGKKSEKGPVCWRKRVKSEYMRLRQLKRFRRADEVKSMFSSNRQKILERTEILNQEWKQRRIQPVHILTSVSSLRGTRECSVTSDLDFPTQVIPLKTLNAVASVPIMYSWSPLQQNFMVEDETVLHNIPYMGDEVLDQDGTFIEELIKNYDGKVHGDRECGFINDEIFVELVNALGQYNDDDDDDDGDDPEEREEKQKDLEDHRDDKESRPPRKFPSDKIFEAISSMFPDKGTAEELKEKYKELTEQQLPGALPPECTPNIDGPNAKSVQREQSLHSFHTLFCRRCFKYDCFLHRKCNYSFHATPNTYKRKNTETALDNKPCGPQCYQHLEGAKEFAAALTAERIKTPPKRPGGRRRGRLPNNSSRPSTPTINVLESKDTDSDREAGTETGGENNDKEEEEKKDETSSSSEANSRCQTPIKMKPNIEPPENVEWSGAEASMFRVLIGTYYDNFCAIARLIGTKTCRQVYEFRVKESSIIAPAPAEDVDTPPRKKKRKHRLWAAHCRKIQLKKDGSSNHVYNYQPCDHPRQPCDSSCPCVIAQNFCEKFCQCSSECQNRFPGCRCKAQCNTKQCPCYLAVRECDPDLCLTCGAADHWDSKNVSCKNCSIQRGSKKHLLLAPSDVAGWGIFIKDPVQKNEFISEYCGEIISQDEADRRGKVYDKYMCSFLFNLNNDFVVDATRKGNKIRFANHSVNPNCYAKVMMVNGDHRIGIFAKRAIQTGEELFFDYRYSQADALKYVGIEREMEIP
Sequence (O75530 whole entry partner): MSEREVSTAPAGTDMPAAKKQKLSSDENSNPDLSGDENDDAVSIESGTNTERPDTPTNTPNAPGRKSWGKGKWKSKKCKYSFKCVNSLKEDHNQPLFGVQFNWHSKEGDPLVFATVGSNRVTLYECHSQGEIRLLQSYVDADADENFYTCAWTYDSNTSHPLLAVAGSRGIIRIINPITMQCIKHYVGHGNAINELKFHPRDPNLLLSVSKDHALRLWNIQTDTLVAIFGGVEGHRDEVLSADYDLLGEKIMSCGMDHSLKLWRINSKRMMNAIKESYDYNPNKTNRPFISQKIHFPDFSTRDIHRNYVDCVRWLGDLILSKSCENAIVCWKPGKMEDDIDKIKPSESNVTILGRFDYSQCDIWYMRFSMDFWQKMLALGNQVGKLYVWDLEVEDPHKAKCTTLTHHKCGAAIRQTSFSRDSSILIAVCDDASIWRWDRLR
Sequence (Q15022 whole entry partner): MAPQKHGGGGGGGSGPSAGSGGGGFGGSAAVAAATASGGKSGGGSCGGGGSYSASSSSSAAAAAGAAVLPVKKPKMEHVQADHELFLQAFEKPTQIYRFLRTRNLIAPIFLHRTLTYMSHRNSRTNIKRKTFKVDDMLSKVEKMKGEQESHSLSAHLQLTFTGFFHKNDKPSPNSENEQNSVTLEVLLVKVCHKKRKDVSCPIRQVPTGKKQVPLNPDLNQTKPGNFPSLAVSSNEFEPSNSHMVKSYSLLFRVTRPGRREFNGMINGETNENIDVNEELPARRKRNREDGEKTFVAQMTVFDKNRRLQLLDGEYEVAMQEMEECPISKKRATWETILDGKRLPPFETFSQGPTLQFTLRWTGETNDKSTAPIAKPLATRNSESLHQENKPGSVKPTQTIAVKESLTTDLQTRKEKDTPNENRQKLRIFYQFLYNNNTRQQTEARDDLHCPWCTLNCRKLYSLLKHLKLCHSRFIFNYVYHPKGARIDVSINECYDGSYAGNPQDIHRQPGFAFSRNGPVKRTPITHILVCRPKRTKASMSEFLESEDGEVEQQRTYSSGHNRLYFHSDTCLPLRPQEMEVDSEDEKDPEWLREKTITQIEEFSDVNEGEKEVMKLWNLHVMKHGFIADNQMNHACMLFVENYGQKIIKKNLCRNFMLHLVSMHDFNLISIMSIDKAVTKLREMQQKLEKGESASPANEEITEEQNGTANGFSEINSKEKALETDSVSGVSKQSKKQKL
Sequence (Q09028 whole entry partner): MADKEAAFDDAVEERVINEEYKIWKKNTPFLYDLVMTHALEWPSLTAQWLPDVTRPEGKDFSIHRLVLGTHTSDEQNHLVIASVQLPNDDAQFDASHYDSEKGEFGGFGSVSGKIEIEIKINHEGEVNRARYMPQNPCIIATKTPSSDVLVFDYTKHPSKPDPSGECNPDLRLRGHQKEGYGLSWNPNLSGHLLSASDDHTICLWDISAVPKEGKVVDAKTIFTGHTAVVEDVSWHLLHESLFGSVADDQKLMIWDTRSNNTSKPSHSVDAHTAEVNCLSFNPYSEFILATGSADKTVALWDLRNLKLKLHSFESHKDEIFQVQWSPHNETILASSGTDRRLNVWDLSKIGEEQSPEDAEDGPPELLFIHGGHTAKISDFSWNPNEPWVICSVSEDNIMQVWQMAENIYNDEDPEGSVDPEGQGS
Record form. Attribute: IC50. Fill in for each entry.

Reference set (3 entries):
CCc1cc(C)[nH]c(=O)c1CNC(=O)c1cc(C2=CC(C)(C)NC(C)(C)C2)nc2c1cnn2C(C)C [Compound B-25] : < 300 nM
C=CCn1ncc2c(C(=O)NCc3c(C)cc(C)[nH]c3=O)cc(C3=CC(C)(C)NC(C)(C)C3)nc21 [Compound B-155] : 10000 to 50000 nM
Cc1cc(C)c(CNC(=O)c2cc(-c3ccc(CN(C)CCN4CCCC4)cc3)nc3c2cnn3C(C)C)c(=O)[nH]1 [Compound A-21] : 300 to 1000 nM

Read the next record carefully.
Find the recorded IC50 belonging to Cc1cc(C)c(CNC(=O)c2cc(C3CCN(C(=O)CN)CC3)nc3c2cnn3C(C)C)c(=O)[nH]1 [Compound B-79] and report it.
300 to 1000 nM
